This listing pairs molecules with measured IC50.
# Test system: Cholinesterase (Equus caballus, UniProt P81908)
# Sequence (P81908 whole entry): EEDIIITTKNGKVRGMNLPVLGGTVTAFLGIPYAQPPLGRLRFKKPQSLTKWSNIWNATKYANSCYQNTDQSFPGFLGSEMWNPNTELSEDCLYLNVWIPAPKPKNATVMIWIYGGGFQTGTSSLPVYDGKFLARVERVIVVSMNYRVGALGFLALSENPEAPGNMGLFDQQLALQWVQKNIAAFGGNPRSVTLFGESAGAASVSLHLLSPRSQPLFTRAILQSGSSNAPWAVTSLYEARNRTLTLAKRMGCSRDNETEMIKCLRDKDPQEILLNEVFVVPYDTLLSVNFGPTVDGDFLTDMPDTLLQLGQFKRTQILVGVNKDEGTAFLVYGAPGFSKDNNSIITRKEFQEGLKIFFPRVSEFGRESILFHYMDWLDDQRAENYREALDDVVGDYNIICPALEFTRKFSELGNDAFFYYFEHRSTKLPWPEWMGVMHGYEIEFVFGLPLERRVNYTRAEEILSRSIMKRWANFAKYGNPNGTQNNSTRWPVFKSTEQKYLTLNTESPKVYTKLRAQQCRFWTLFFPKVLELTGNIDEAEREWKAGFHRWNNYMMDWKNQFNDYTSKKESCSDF
# Experiment notes: Inhibition of equine serum BChE using butyrylthiocholine chloride as substrate incubated for 15 mins by spectrophotometric analysis
Assay metric: IC50 (µM)

>>> data_value("CC(C)=CCC/C(=C/CC/C(C)=C/CC/C(C)=C/Cc1cc(O)cc(C)c1O)C(=O)O [SARGAHYDROQUINOIC ACID]")
15.2
>>> data_value("CC(C)=CCC/C(=C/CC/C(C)=C/CC/C(C)=C/CC1=CC(=O)C=C(C)C1=O)C(=O)O")
10.5
>>> data_value("CC(C)=CCC/C(=C/CC/C(C)=C/CCC1(C)C=Cc2cc(O)cc(C)c2O1)C(=O)O (stereo not drawn)")
9.4

Hey, just so you know, these numbers are from ChEMBL document CHEMBL4052658.
